Values were extracted from patent US20240008524A1.

- PROCEDURE_TEXT: Water solubility of flavoring agents and their flavor glucosides
- DETAILS: water
Reported solubility values follow for various compounds
Respond numerically; units are µg/mL and should not be typed.

// below: answered compounds
Exercise: Need solubility of CC12CCC(C1)C(C)(C)C2O (centres unmarked) , thanks.
Key: 461

Exercise: Find the recorded solubility belonging to C=CC(C)(O)CCC=C(C)C (centres unmarked) and report it.
Key: 680

Exercise: Which measured solubility value corresponds to Cc1occc(=O)c1O ?
Key: 10900

Exercise: Could you tell me which solubility is on file for C=CCc1ccc(O)c(OC)c1 ?
Key: 2460

Exercise: Can you look up the measured solubility of CC(C)=CCCC(C)=CCCC(C)=CCO for me?
Key: 1.29

---
Exercise: Would you kindly share the measured solubility for CC(C)=CCCC(C)CCO (centres unmarked) ?
Key: 106

Exercise: Item under review: CC1=C(O)C(=O)C(C)O1 (centres unmarked) . Reported solubility?
Key: 18500

Exercise: GET /values?readout=solubility&item= C=C(C)[C@@H]1CC=C(CO)CC1
Key: 471

Exercise: Find the recorded solubility belonging to CC1CCC(C(C)C)C(O)C1 (centres unmarked) and report it.
Key: 490

Exercise: Which value of solubility has been reported for CC/C=C\CCO [cis-3-Hexen-1-ol] in the records?
Key: 16000

Exercise: # get_value(readout='solubility', item= CC(C)=CCC/C(C)=C\CO )
Key: 256
